experiment: oral toxicity in mice (LD50, mortality over 14 days); settings: mouse, in vivo, po
Listed here are molecules together with their documented LD50 at 336 h.

Molecule | LD50 at 336 h, mg/kg
CN1C(=O)OC(C)(C)C1=O [TRIM, trimethadione, reference compound] | 2180
Cc1ccccc1N1CCN(C(=O)c2cccnc2)CC1 | 1000
CCCC(CCC)C(=O)[O-].[Na+] [VALP, sodium valproate, reference compound] | 977
O=C(c1cccnc1)N1CCN(c2ccc(F)cc2)CC1 | 625

----------
In this section we review reported TD50 (50% neurotoxic dose) values for a set of compounds.
tested on: male mice; assay: in vivo; assay type: in vivo; settings: per os, male mice, Rota-rod 30 min after administration; dose causing 50% of animals to fall; 30 min

Compound | Target System | TD50 (50% neurotoxic dose) [mg/kg]
Cc1ccc(Cl)cc1N1CCN(C(=O)c2cccnc2)CC1 | male mice | 355
Cc1cc(Cl)ccc1N1CCN(C(=O)c2cccnc2)CC1 [Ex. 23] | male mice | 650
Cc1cc(Cl)ccc1N1CCN(C(=O)c2cccnc2)CC1 [Ex. 22] | male mice | 300
CCOc1cccc(N2CCN(C(=O)c3cccnc3)CC2)c1 | male mice | 250

Reference source for all entries: patent US4880807A
